Cited source for all entries: ChEMBL document CHEMBL1154968

Recorded measurements of inhibition at 3 µM, one per entry
- Test system: Hepatitis C virus
- test-details: Antiviral activity against E1 and E2 envelope protein expressing HCV infected in HepG2 cells assessed as inhibition of viral invasion at 3 uM after 24 hrs by SEAP reporter gene assay
- Assay type: functional, Hepacivirus hominis
- experimental-setup: HepG2, 24 h
Give your result in % as a bare value.

>  <compound>
O=C(OC[C@H]1O[C@@H](OC(=O)c2cc(O)c(O)c(O)c2)[C@H](OC(=O)c2cc(O)c(O)c(O)c2)[C@@H](OC(=O)c2cc(O)c(O)c(O)c2)[C@@H]1OC(=O)c1cc(O)c(O)c(O)c1)c1cc(O)c(O)c(O)c1

>  <result-value>
28.9

$$$$
>  <compound>
O=C1OC[C@H]2OC(O)[C@@H]3OC(=O)c4cc(O)c(O)c(O)c4-c4c(cc(O)c(O)c4O)C(=O)O[C@H]3[C@@H]2OC(=O)c2cc(O)c(O)c(O)c2-c2c1cc(O)c(O)c2O (some centres undefined)

>  <result-value>
58.8

$$$$
>  <compound>
O=C(O[C@@H]1O[C@@H]2COC(=O)c3cc(O)c(O)c(O)c3-c3c(cc(O)c(O)c3O)C(=O)O[C@H]2[C@H](OC(=O)c2cc(O)c(O)c(O)c2)[C@H]1OC(=O)c1cc(O)c(O)c(O)c1)c1cc(O)c(O)c(O)c1

>  <result-value>
51.3

$$$$

Q. Fill in: inhibition at 3 µM of O=C(OC[C@H]1OC(O)[C@H](OC(=O)c2cc(O)c(O)c(O)c2)[C@@H](OC(=O)c2cc(O)c(O)c(O)c2)[C@@H]1OC(=O)c1cc(O)c(O)c(O)c1)c1cc(O)c(O)c(O)c1 (some centres undefined) is ___
A. 20.8
